Endpoint: pKi. System: h5-HT5A receptor (Homo sapiens, UniProt P47898). Items follow.
Sequence (P47898 whole entry): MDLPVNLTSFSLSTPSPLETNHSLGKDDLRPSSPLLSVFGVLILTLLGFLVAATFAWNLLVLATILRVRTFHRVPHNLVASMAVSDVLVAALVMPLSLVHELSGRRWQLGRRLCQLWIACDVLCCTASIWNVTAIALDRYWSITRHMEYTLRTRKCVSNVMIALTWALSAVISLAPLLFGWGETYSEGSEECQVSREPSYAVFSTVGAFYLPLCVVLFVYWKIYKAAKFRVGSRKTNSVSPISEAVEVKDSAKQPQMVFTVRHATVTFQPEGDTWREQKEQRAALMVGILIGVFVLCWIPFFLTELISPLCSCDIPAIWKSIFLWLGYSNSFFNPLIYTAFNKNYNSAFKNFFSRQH
pKi: −log10 of the molar value. Counter-ions that a name gives are not always drawn.

For orientation, consider the following solved cases.
### Prompt API: value(readout= pKi, system= h5-HT5A receptor (Homo sapiens, UniProt P47898), query= COc1cccc(OC)c1CNC(=N)Nc1nc(-c2cc3ccccc3o2)cs1 [Example 67, hydrobromide] )
### Response > 7.30

### Prompt API: value(readout= pKi, system= h5-HT5A receptor (Homo sapiens, UniProt P47898), query= COc1cccc(OC)c1CNC(=N)Nc1nc(-c2ccc(OC(F)F)cc2)cs1 [Example 109, hydrobromide] )
### Response 6.30 to 7.30

// next entry
### Prompt API: value(readout= pKi, system= h5-HT5A receptor (Homo sapiens, UniProt P47898), query= COc1cccc(OC)c1CNC(=N)Nc1nc(-c2ccccn2)cs1 [Example 42] )
### Response > 7.30

Origin of measurements: patent US8481576B2
